The measurements presented in this section are drawn from PubChem BioAssay (NCATS).

# target: Cytochrome P450 2C9 (Homo sapiens)
# experiment_description: Cytochrome P450 family 2 subfamily C member 9 (CYP2C9) small molecule antagonists: luciferase biochemical (cell-free) qHTS assay (AID 1645842); note: nearly all actives have a fitted effect of over 55% in size
# run_conditions: P450-Glo CYP2C9 enzyme assay, luciferin luminescence; series mostly up to 57.4 µM
Inconclusive results are not listed. Activity calls are given as the source filed them. Calls come from the whole dose curve; as a rule, active = well fitted inhibition curve with a large enough effect in the repeat runs; inconclusive = weak or mixed curves; inactive = no such curve, though single readings can be large or run the other way.
Classes used: active, inactive

[
  {
    "compound": "CC(C)(N)c1ccc(-c2nc3ccccc3nc2-c2ccccc2)cc1",
    "target": "Cytochrome P450 2C9 (Homo sapiens)",
    "group_label": "active"
  },
  {
    "compound": "CC(O)(C#Cc1ccc2c(c1)N(c1nc(N)ncc1Cl)CC2)c1nccs1 (stereo not drawn)",
    "target": "Cytochrome P450 2C9 (Homo sapiens)",
    "group_label": "active"
  },
  {
    "compound": "COc1ccc(C[C@@H](C)[C@@H](C)Cc2ccc(OC)c(OC)c2)cc1OC",
    "target": "Cytochrome P450 2C9 (Homo sapiens)",
    "group_label": "active"
  },
  {
    "compound": "Cc1cnc(Nc2ccc(N3CCN(C)CC3)cc2)nc1Nc1cccc(S(=O)(=O)NC(C)(C)C)c1",
    "target": "Cytochrome P450 2C9 (Homo sapiens)",
    "group_label": "inactive"
  },
  {
    "compound": "O=C(O)c1ccc(Nc2ncc3c(n2)-c2ccc(Cl)cc2C(c2c(F)cccc2F)=NC3)cc1",
    "target": "Cytochrome P450 2C9 (Homo sapiens)",
    "group_label": "active"
  },
  {
    "compound": "CN(C)CC(=O)N1CCC(c2ccc(NC(=O)c3ncc(C#N)[nH]3)c(C3=CCCCC3)c2)CC1",
    "target": "Cytochrome P450 2C9 (Homo sapiens)",
    "group_label": "inactive"
  },
  {
    "compound": "OCCNC1CCCc2c1[nH]c1ccc(-c3ccccc3)cc21 (stereo not drawn)",
    "target": "Cytochrome P450 2C9 (Homo sapiens)",
    "group_label": "active"
  },
  {
    "compound": "FC(F)(F)c1ccc(Nc2nc3ccc(Oc4ccnc(-c5ncc(C(F)(F)F)[nH]5)c4)cc3[nH]2)cc1",
    "target": "Cytochrome P450 2C9 (Homo sapiens)",
    "group_label": "active"
  },
  {
    "compound": "Cc1noc(-c2ccc(CSCCC(=O)O)cc2)c1NC(=O)OC(C)c1ccccc1Cl (stereo not drawn)",
    "target": "Cytochrome P450 2C9 (Homo sapiens)",
    "group_label": "active"
  },
  {
    "compound": "c1ccc2c(Oc3nc(Nc4ccc(N5CCOCC5)cc4)c4ncn(C5CCCCC5)c4n3)cccc2c1",
    "target": "Cytochrome P450 2C9 (Homo sapiens)",
    "group_label": "active"
  },
  {
    "compound": "CCCCCCCCCCCCCCCC(=O)OC[C@@H](NC(=O)C(Cl)Cl)[C@H](O)c1ccc([N+](=O)[O-])cc1",
    "target": "Cytochrome P450 2C9 (Homo sapiens)",
    "group_label": "active"
  },
  {
    "compound": "NC(=O)c1cccc(-c2cccc(OC(=O)NC3CCCCC3)c2)c1",
    "target": "Cytochrome P450 2C9 (Homo sapiens)",
    "group_label": "inactive"
  },
  {
    "compound": "Nc1ccn(C2CO[C@H](CO)O2)c(=O)n1 (stereo partly drawn)",
    "target": "Cytochrome P450 2C9 (Homo sapiens)",
    "group_label": "inactive"
  }
]
